target: hGLP-1R (Homo sapiens, UniProt P43220); assay: cell-based or functional assay
Sequence (P43220 24-463): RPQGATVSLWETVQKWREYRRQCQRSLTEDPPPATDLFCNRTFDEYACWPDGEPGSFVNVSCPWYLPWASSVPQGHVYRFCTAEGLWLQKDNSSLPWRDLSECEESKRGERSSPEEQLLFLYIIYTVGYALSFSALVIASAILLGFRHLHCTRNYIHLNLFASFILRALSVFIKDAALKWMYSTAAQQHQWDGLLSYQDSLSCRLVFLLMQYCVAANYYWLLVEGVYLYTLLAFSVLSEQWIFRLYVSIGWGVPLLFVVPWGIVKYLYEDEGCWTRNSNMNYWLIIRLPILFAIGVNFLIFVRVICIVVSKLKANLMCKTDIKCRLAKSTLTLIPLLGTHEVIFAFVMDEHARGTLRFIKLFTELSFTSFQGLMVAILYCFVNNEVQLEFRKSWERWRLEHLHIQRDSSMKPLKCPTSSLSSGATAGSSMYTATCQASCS
Starred links: 1 amine or outer side, 2 acyl side, 3 side chain; linkers in the order of their positions; H or OH if unused. Non-standard residues stand in square brackets, D forms with d. Groups on a side chain read outwards from the residue. No end group written: not given here. *: point of attachment. C20 diacid = O=C(O)CCCCCCCCCCCCCCCCCCC(=O)*; γGlu = O=C(O)[C@H](CCC(=O)[*:2])N[*:1]; αMeF = C[C@](N)(Cc1ccccc1)C(=O)O; αMeL = CC(C)C[C@](C)(N)C(=O)O; AEEA = NCCOCCOCC(=O)O; Aib = CC(C)(N)C(=O)O
cAMP Rel EC50 (1% HSA) strictly less than 200 nM = Satisfied. Otherwise Not satisfied.

Answered examples (10):
Y[Aib]QGT[αMeF]TSDYSILLDKIAAKNFIEYLVEGGPSSGEPPPSEG-NH2 (not fully specified (residue 20)) [Example 307]; Not satisfied
Y[Aib]QGTFTSDYSI[αMeL]LDKQAAK([AEEA-AEEA-γGlu-C20 diacid])QFVEWLIAGGPSSGEPPPAEG-NH2 [Example 332]; Not satisfied
YXQGTXTSDXXIXLDXKAAXEFIEXLIEGGPSSGAPPPSGGGE (synthetic construct; SITE 2: note = 2-Aminoisobutyric Acid; SITE 6: note = alpha-methyl-2-fluoro-L-phenylalanine; SITE 10: note = 3-(4-Pyridyl)-L-alanine; SITE 11: note = alpha-methyl-L-serine; SITE 13: note = alpha-methyl-leucine; SITE 16: note = L-ornithine; SITE 17: note = Lysine is chemically mo) [Example 745]; Satisfied
YXQGTXTSDXXIXLDXXAQXEFIEXLIEGGPSSGAPPPSGSE (synthetic construct; SITE 2: note = 2-Aminoisobutyric Acid; SITE 6: note = alpha-methyl-2-fluoro-L-phenylalanine; SITE 10: note = 3-(4-Pyridyl)-L-alanine; SITE 11: note = alpha-methyl-L-serine; SITE 13: note = alpha-methyl-leucine; SITE 16: note = L-ornithine; SITE 17: note = Ornithine is chemically) [Example 1212]; Satisfied
YXQGTFTSDXSQXLDXKAQXAFIEXLIEGGPSSGAPPPSGSEEE (acylated Lys e-γGlu-C18 diacid; non-natural residues; C-terminal amide; synthetic construct; SITE 2: note = 2-Aminoisobutyric Acid; SITE 10: note = 3-(4-Pyridyl)-L-alanine; SITE 13: note = alpha-methyl-leucine; SITE 16: note = L-ornithine; SITE 17: note = Lysine is chemically modified through conjugation of the epsilon-amino group of the Lysine side chain with D-Glutami) [Example 1071]; Not satisfied
YXQGTFTSDXSQXLDKKAQXAFIEYLIEXGPSSGAPPPSGS (Aib, 4Pal, αMeL, Me4Pal; acylated Lys; C-terminal amide; synthetic construct; SITE 2: note = 2-Aminoisobutyric Acid; SITE 10: note = 3-(4-Pyridyl)-L-alanine; SITE 13: note = alpha-methyl-leucine; SITE 17: note = Lysine is chemically modified through conjugation of the epsilon-amino group of the Lysine side chain with (D-Glutamic acid)2-(gamma-Glu)-CO-(CH2)) [Example 921]; Not satisfied
YXQGTXTSDXSILLDKKAQXAFIEYLEEGGPSSGAPPPSGTGE (synthetic construct; SITE 2: note = 2-Aminoisobutyric Acid; SITE 6: note = alpha-methyl-2-fluoro-L-phenylalanine; SITE 10: note = 3-(4-Pyridyl)-L-alanine; SITE 17: note = Lysine is chemically modified through conjugation of the epsilon-amino group of the Lysine side chain with (2-[2-(2-Amino-ethoxy))) [Example 662]; Satisfied
YXQGTFTSDXSQXLDXKAQXAFIQXLIAXGPSSGEPPPSGGGE (Lys acylated γGlu-C18 diacid; non-natural residues; C-amide; synthetic construct; SITE 2: note = 2-Aminoisobutyric Acid; SITE 10: note = 3-(4-Pyridyl)-L-alanine; SITE 13: note = alpha-methyl-leucine; SITE 16: note = L-ornithine; SITE 17: note = Lysine is chemically modified through conjugation of the epsilon-amino group of the Lysine side chain with D-Glutami) [Example 1130]; Satisfied
YXQGTXTSDXXIXLDXQAQXEFIEXLIEGGPSSGAPPPSGSE (not fully specified; no fatty acid; synthetic construct; SITE 2: note = 2-Aminoisobutyric Acid; SITE 6: note = alpha-methyl-2-fluoro-L-phenylalanine; SITE 10: note = 3-(4-Pyridyl)-L-alanine; SITE 11: note = alpha-methyl-L-serine; SITE 13: note = alpha-methyl-leucine; SITE 16: note = L-ornithine; SITE 20: note = 3-(4-Pyridyl)-L-alanine) [Example 1233]; Satisfied
YXQGTFTSDXSQXLDKKAQXAFIEYLIAGGPSSGAPPPSGEEE (acylated Lys, C-terminal amide, non-natural residues; synthetic construct; SITE 2: note = 2-Aminoisobutyric Acid; SITE 10: note = 3-(4-Pyridyl)-L-alanine; SITE 13: note = alpha-methyl-leucine; SITE 17: note = Lysine is chemically modified through conjugation of the epsilon-amino group of the Lysine side chain with (Glu)2-(gamma-Glu)-CO-(CH2)16-CO2H; SI) [Example 1090]; Not satisfied

input: # strict comparison: is reported cAMP Rel EC50 (1% HSA) < 200 nM? input = YXQGTFTSDYSKXLDKKAQXAFVQWLLEGGPSSGEPPPSEG (not fully specified; Aib, alpha-methyl-Leu, acylated Lys, C-terminal amide; synthetic construct; SITE 2: note = 2-Aminoisobutyric Acid; SITE 13: note = alpha-methyl-leucine; SITE 17: note = Lysine is chemically modified through conjugation of the epsilon-amino group of the Lysine side chain with (2-[2-(2-Amino-ethoxy)-ethoxy]-acetyl)-(gamma-Glu)-CO-(CH2) 18-CO2H; SITE 20: n) [Example 343]
output: Satisfied

input: Does this binder meet the criterion cAMP Rel EC50 (1% HSA) < 200 nM? YXQGTXTSDXXIXLDXKAQXNFIEXLQEGGPSSGEPPPEGT (synthetic construct; SITE 2: note = 2-Aminoisobutyric Acid; SITE 6: note = alpha-methyl-2-fluoro-L-phenylalanine; SITE 10: note = 3-(4-Pyridyl)-L-alanine; SITE 11: note = alpha-methyl-L-serine; SITE 13: note = alpha-methyl-leucine; SITE 16: note = L-ornithine; SITE 17: note = Lysine is chemically mo) [Example 525]
output: Satisfied
